Readings of activity at 1 µM for the listed molecules
Test system: hepatic stage of P. berghei
Test: In vitro activity against P. berghei hepatic stages (luciferase-expressing sporozoites in Huh-7 cells, bioluminescence)
Assay type: cell-based, Plasmodium berghei
Conditions: Plasmodium berghei, Huh-7, 48 h; at 1 μM; DMSO = 100; read-out: INFECTION Ø screening
Endpoint: activity at 1 µM

INSERT INTO measurements (molecule, endpoint, result) VALUES
  ('COc1c2c(cc3c1OCO3)[C@]13C=C[C@H](OC)C[C@H]1N(C2)C[C@H]3OC(=O)c1ccc([N+](=O)[O-])cc1 [28q, 11-O-(4-Nitrobenzoyl)ambelline]', 'activity at 1 µM', '64.6%'),
  ('COc1c2c(cc3c1OCO3)[C@]13C=C[C@H](OC)C[C@H]1N(C2)C[C@H]3OC(=O)c1ccc(C)cc1 [28g, 11-O-(4-Methylbenzoyl)ambelline]', 'activity at 1 µM', '23.1%'),
  ('CCCCC(=O)O[C@@H]1CN2Cc3c(cc4c(c3OC)OCO4)[C@@]13C=C[C@H](OC)C[C@@H]23 [28d, 11-O-Pentanoylambelline]', 'activity at 1 µM', '93.9%'),
  ('COC1C=CC23c4cc5c(cc4CN(CC2OC(=O)c2cccc([N+](=O)[O-])c2)C3C1)OCO5 (centres unmarked) [29j, 11-O-(3-nitrobenzoyl)haemanthamine]', 'activity at 1 µM', '78.2%'),
  ('COc1ccc(C(=O)OC2CN3Cc4cc5c(cc4C24C=CC(OC)CC34)OCO5)cc1OC (centres unmarked) [29h, 11-O-(3,4-dimethoxybenzoyl)haemanthamine]', 'activity at 1 µM', '90.4%'),
  ('COc1cccc(C(=O)O[C@@H]2CN3Cc4c(cc5c(c4OC)OCO5)[C@@]24C=C[C@H](OC)C[C@@H]34)c1 [28j, 11-O-(3-Methoxybenzoyl)ambelline]', 'activity at 1 µM', '10.8%'),
  ('COc1ccc(C(=O)O[C@@H]2CN3Cc4c(cc5c(c4OC)OCO5)[C@@]24C=C[C@H](OC)C[C@@H]34)cc1 [28k, 11-O-(4-Methoxybenzoyl)ambelline]', 'activity at 1 µM', '19.9%'),
  ('COc1ccccc1C(=O)OC1CN2Cc3cc4c(cc3C13C=CC(OC)CC23)OCO4 (centres unmarked) [29e, 11-O-(2-methoxybenzoyl)haemanthamine]', 'activity at 1 µM', '67.6%');

---

Tested on: HepG2 cells
Test: Cytotoxicity assessment in vitro (MTT assay)
Type: cell-based
Settings: c = 10 μM; replicate 3; in %
Endpoint: 3. screening of cytotoxic potential, HepG2 cell line

INSERT INTO assay_data (molecule, study_target, numeric_value) VALUES
  ('COc1cccc(C(=O)O[C@@H]2CN3Cc4c(cc5c(c4OC)OCO5)[C@@]24C=C[C@H](OC)C[C@@H]34)c1 [28j, 11-O-(3-Methoxybenzoyl)ambelline]', 'HepG2 cells', 87.15),
  ('COc1ccc(C(=O)O[C@@H]2CN3Cc4c(cc5c(c4OC)OCO5)[C@@]24C=C[C@H](OC)C[C@@H]34)cc1 [28k, 11-O-(4-Methoxybenzoyl)ambelline]', 'HepG2 cells', 85.98),
  ('COc1c2c(cc3c1OCO3)[C@]13C=C[C@H](OC)C[C@H]1N(C2)C[C@H]3OC(=O)c1cc(C)cc(C)c1 [28h, 11-O-(3,5-Dimethylbenzoyl)ambelline]', 'HepG2 cells', 73.05),
  ('COc1c2c(cc3c1OCO3)[C@]13C=C[C@H](OC)C[C@H]1N(C2)C[C@@H]3O [compound 28, ambelline]', 'HepG2 cells', 51.3),
  ('COc1cccc2c1C(=O)c1c(O)c3c(c(O)c1C2=O)C[C@@](O)(C(=O)CO)C[C@@H]3O[C@H]1C[C@H](N)[C@H](O)[C@H](C)O1 [Doxorubicine, reference compound]', 'HepG2 cells', 60.13);

---

Test system: Huh-7 cell line
Assay: Huh-7 cell confluency by alamarBlue assay during hepatic-stage test
Type: cell-based
Details: human, 46 h, 10 µM, pH 7
Endpoint: CELL CONFLUENCY Ø screening

INSERT INTO measurements (compound, endpoint, numeric_value) VALUES
  ('CCCCC(=O)O[C@@H]1CN2Cc3c(cc4c(c3OC)OCO4)[C@@]13C=C[C@H](OC)C[C@@H]23 [28d, 11-O-Pentanoylambelline]', 'CELL CONFLUENCY Ø screening', 93.14),
  ('COc1c2c(cc3c1OCO3)[C@]13C=C[C@H](OC)C[C@H]1N(C2)C[C@H]3OC(=O)c1cccc([N+](=O)[O-])c1 [28p, 11-O-(3-Nitrobenzoyl)ambelline]', 'CELL CONFLUENCY Ø screening', 79.58),
  ('COc1c2c(cc3c1OCO3)[C@]13C=C[C@H](OC)C[C@H]1N(C2)C[C@H]3OC(=O)c1ccccc1 [28e, 11-O-Benzoylambelline]', 'CELL CONFLUENCY Ø screening', 86.56),
  ('COc1c2c(cc3c1OCO3)[C@]13C=C[C@H](OC)C[C@H]1N(C2)C[C@H]3OC(=O)c1ccc(C)c([N+](=O)[O-])c1 [28r, 11-O-(4-Methyl-3-nitrobenzoyl)ambelline]', 'CELL CONFLUENCY Ø screening', 52.08),
  ('COc1c2c(cc3c1OCO3)[C@]13C=C[C@H](OC)C[C@H]1N(C2)C[C@H]3OC(=O)c1ccc(Cl)c([N+](=O)[O-])c1 [28t, 11-O-(4-Chloro-3-nitrobenzoyl)ambelline]', 'CELL CONFLUENCY Ø screening', 92.83),
  ('COc1cc(OC)cc(C(=O)OC2CN3Cc4cc5c(cc4C24C=CC(OC)CC34)OCO5)c1 (stereo not drawn) [29i, 11-O-(3,5-dimethoxybenzoyl)haemanthamine]', 'CELL CONFLUENCY Ø screening', 120.8);

---

Tested on: HepG2 cells
Test: Cytotoxicity assessment in vitro (MTT assay)
Format: cell-based
Settings: c = 10 μM; DMSO = 100; in %
Description: HepG2 cells of human hepatocellular carcinoma (ATCC HB-8065; passage 20–25), purchased from Health Protection Agency Culture Collections (ECACC, Salisbury, UK), were cultured in Minimum Essential Medium Eagle supplemented with 10% v/v fetal bovine serum and 1% v/v L-glutamine solution (Sigma-Aldrich, St. Louis, MO, USA) at 37 °C in a humidified atmosphere containing 5% CO2. […] Cytotoxicity of all studied derivatives was screened at 10 μM concentration, and all samples were measured in triplicates. […]
Threshold check on Ø screening, HepG2 (sheet Graphs): strictly below 70 is MET; on or above 70 is NOT MET.

INSERT INTO measurements (compound, study_target, discrete_label) VALUES
  ('COc1c2c(cc3c1OCO3)[C@]13C=C[C@H](OC)C[C@H]1N(C2)C[C@@H]3O', 'HepG2 cells', 'MET'),
  ('COc1ccc(C(=O)O[C@@H]2CN3Cc4c(cc5c(c4OC)OCO5)[C@@]24C=C[C@H](OC)C[C@@H]34)cc1 [28k, 11-O-(4-Methoxybenzoyl)ambelline]', 'HepG2 cells', 'NOT MET'),
  ('COc1c2c(cc3c1OCO3)[C@]13C=C[C@H](OC)C[C@H]1N(C2)C[C@H]3OC(=O)c1cc(C)cc(C)c1 [28h, 11-O-(3,5-Dimethylbenzoyl)ambelline]', 'HepG2 cells', 'NOT MET'),
  ('COc1cccc2c1C(=O)c1c(O)c3c(c(O)c1C2=O)C[C@@](O)(C(=O)CO)C[C@@H]3O[C@H]1C[C@H](N)[C@H](O)[C@H](C)O1 [Doxorubicine, reference compound]', 'HepG2 cells', 'MET'),
  ('COc1cccc(C(=O)O[C@@H]2CN3Cc4c(cc5c(c4OC)OCO5)[C@@]24C=C[C@H](OC)C[C@@H]34)c1 [28j, 11-O-(3-Methoxybenzoyl)ambelline]', 'HepG2 cells', 'NOT MET');

---

Test system: HepG2 cells
Experiment: Cytotoxicity assessment in vitro (MTT assay)
Assay type: cell-based
Details: c = 10 μM; replicate 1; in %
Endpoint: 1. screening of cytotoxic potential, HepG2 cell line

INSERT INTO results (compound, numeric_value) VALUES
  ('COc1cccc(C(=O)O[C@@H]2CN3Cc4c(cc5c(c4OC)OCO5)[C@@]24C=C[C@H](OC)C[C@@H]34)c1 [28j, 11-O-(3-Methoxybenzoyl)ambelline]', 69.18),
  ('COc1ccc(C(=O)O[C@@H]2CN3Cc4c(cc5c(c4OC)OCO5)[C@@]24C=C[C@H](OC)C[C@@H]34)cc1 [28k, 11-O-(4-Methoxybenzoyl)ambelline]', 88.02),
  ('COc1c2c(cc3c1OCO3)[C@]13C=C[C@H](OC)C[C@H]1N(C2)C[C@H]3OC(=O)c1cc(C)cc(C)c1 [28h, 11-O-(3,5-Dimethylbenzoyl)ambelline]', 61.45),
  ('COc1c2c(cc3c1OCO3)[C@]13C=C[C@H](OC)C[C@H]1N(C2)C[C@@H]3O', 49.93),
  ('COc1cccc2c1C(=O)c1c(O)c3c(c(O)c1C2=O)C[C@@](O)(C(=O)CO)C[C@@H]3O[C@H]1C[C@H](N)[C@H](O)[C@H](C)O1 [Doxorubicine, reference compound]', 62.5);
